# System: TK-10 renal
# Protocol Description: NCI-60 one-dose screen, 48 h (100 = growth as untreated, 0 = no growth, -100 = all killed)
# Condition Parameters: 10 µM unless noted
This is part of a sample that, as a whole, favours compounds with a hit. Of some 83,000 tested, about 20% had one in any assay. Activity calls are given as the source filed them. The calls were made as follows: active = growth percent below 10; inactive = the rest.
Metric Name: growth

Some compounds with known growth results, for comparison:
Please provide the recorded growth for CN(C)CCCC1(c2ccc(F)cc2)OCc2cc(-c3cncc4ccccc34)ccc21 (centres undefined) , tested on TK-10 renal.
83.1% (inactive)

Please provide the recorded growth for COC(=O)c1cc(-c2ccc(OC)cc2)[nH]c1N/N=C/c1c(Cl)cccc1Cl , tested on TK-10 renal.
47.8% (inactive)

Please provide the recorded growth for O=C1c2c(c3c4ccc(Br)cc4oc3c3[nH]c4ccccc4c23)C(=O)N1O , tested on TK-10 renal.
121% (inactive)

Please provide the recorded growth for N#Cc1cccc(-c2c(-c3ccc4ccccc4c3)oc3ccccc3c2=O)c1 , tested on TK-10 renal.
73.1% (inactive)

Please provide the recorded growth for CN1CCN(c2ccc(NC(=O)c3nc4ccc5[nH]ncc5c4c4c3CCCC4)cc2C(F)(F)F)CC1 , tested on TK-10 renal.
109% (inactive)

Please provide the recorded growth for C=C(C)[C@@H]1CC[C@]2(C(=O)NCC#CCN3CCN(C)CC3)CC[C@]3(C)[C@H](CC[C@@H]4[C@@](C)(CCC#N)[C@H](C(=C)C)CC[C@]43C)[C@@H]12 , tested on TK-10 renal.
80.4% (inactive)

Please provide the recorded growth for COc1ccc(/C=C2\COc3ccc(O)c(O)c3C2=O)cc1 , tested on TK-10 renal.
7.43% (active)

Please provide the recorded growth for O=CC1(C2(C=O)c3ccccc3-c3ccccc32)c2ccccc2-c2ccccc21 , tested on TK-10 renal.
-79.9% (active)

Kindly review the next compound as well.
Please provide the recorded growth for Cc1ccc(S(=O)(=O)N2CCCC2CO)cc1 (centres undefined) , tested on TK-10 renal.
101% (inactive)

----------
# Tested on: SK-MEL-5 melanoma
# Protocol Description: NCI-60 one-dose screen, 48 h (100 = growth as untreated, 0 = no growth, -100 = all killed)
# Condition Parameters: 10 µM unless noted
Compounds without any hit were thinned out: in the full panel of roughly 83,000, 20% have a hit.
Metric Name: growth (%)
Express your answer in %, writing the number without its unit.

Endpoint output: growth of O=S(=O)(NCCNc1cc(-c2c(-c3cccc(O)c3)nc3sccn23)ccn1)c1ccc(C(F)(F)F)cc1 . Value?
-2.62

Endpoint output: growth of CCOC(=O)c1cn2ncnc(Oc3ccc(NC(=O)NC4CCCCC4)c(Cl)c3)c2c1C . Value?
84.5

---
Endpoint output: growth of C/C(=N/O)c1ccc(F)cc1 . Value?
89.2

Endpoint output: growth of Cn1c(-c2ccc(Br)cc2)c(O)c(=O)c2c(F)cccc21 . Value?
54.2

Endpoint output: growth of CCN1C(=O)N(CC)C2C1NN=c1s/c(=C\c3cccc([N+](=O)[O-])c3)c(=O)n12 (centres undefined) . Value?
-5.71

Endpoint output: growth of O=C1/C(=C/c2ccc(F)cc2)COc2ccc(O)c(O)c21 . Value?
56.3

Endpoint output: growth of COc1ccc(-c2ccc3cnc4sc(-c5ccc(OC)cc5)nc4c3n2)cc1 . Value?
85.2

Endpoint output: growth of O=C1c2cccc(NCCN=Cc3cc(O)ccc3O)c2C(=O)c2c(NCCN=Cc3cc(O)ccc3O)cccc21 . Value?
4.84

Endpoint output: growth of O=C(Nc1cccnc1Nc1ccc(F)cc1)c1cn(Cc2cccc(Oc3ccccc3)c2)nn1 . Value?
39.3

Endpoint output: growth of COc1ccc(/C=C2\C(=O)N=C3N2NC(c2cc(Br)ccc2O)C=C(C)N3c2ccccc2)cc1 (centres undefined) . Value?
97
